Data origin, for the record: patent US20200317779A1

tgt: recombinant cynomolgus monkey CD3ε/δ heterodimer (cynomolgus monkey) (UniProt Q95LI5)
Sequence (Q95LI5 22-117, stated change not applied, chain 1 of 2): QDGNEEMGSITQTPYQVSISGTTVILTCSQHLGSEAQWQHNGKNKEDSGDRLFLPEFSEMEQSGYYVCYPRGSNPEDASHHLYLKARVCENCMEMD
Sequence (Q95LI8 22-105, stated change not applied, chain 2 of 2, further chain): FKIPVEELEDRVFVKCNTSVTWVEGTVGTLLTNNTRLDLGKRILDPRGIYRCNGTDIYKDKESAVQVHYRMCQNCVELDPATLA
measurement_notes: ELISA, coated CD3ε/δ
Please go through the items and note down their Absorbance (450 nm).
Kindly provide the number alone.

Task: I have this binder here, G16 (antibody, human IgG1, lambda, L234A L235A, V domains shown) VH: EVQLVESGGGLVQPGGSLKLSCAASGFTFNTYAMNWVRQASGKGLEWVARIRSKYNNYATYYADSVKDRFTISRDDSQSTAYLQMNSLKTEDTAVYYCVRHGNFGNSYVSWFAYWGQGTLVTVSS VL: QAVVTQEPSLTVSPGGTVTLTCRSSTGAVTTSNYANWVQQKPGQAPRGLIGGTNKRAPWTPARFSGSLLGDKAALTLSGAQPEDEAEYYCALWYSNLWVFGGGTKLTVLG , and I need its recorded Absorbance (450 nm).
Output: 2.77

Task: // query: E16 (antibody, human IgG1, lambda, L234A L235A, V domains shown) VH: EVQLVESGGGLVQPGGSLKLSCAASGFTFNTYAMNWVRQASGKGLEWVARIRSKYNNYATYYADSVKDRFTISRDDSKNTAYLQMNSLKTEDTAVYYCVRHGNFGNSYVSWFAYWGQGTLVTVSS VL: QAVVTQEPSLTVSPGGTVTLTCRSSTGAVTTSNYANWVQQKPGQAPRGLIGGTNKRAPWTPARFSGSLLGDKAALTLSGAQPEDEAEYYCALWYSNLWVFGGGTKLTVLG
Output: 2.74

Task: // query: B02 (antibody, human IgG1, lambda, L234A L235A, V domains shown) VH: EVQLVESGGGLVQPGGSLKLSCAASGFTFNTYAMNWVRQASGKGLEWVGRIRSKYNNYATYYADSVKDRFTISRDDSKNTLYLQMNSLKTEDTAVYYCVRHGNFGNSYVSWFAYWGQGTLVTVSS VL: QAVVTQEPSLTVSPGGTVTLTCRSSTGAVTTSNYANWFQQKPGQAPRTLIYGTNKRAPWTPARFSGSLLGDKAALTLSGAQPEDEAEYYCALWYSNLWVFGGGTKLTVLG
Output: 0.072

Task: // query: B09 (antibody, human IgG1, lambda, L234A L235A, V domains shown) VH: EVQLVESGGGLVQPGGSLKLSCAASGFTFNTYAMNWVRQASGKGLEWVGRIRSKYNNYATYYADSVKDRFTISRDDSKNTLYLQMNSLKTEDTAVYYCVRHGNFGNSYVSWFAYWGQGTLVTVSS VL: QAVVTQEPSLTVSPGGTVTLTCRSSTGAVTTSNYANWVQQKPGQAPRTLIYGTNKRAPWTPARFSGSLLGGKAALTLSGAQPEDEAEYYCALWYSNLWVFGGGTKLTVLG
Output: 0.099

Task: // query: G08 (antibody, human IgG1, lambda, L234A L235A, V domains shown) VH: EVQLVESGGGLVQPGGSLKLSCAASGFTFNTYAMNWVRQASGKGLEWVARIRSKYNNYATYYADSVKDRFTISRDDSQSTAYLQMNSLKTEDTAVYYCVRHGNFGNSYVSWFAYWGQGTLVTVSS VL: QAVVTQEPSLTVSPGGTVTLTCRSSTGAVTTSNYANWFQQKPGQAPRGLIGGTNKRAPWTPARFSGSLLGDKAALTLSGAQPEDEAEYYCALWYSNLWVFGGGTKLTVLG
Output: 0.119
